These entries and their values trace back to paper PMC7983974.

- measurement_target: UGT-mediated glucuronidation of molidustat (M1 formation) (Homo sapiens)
- Sequence (P22309 26-533): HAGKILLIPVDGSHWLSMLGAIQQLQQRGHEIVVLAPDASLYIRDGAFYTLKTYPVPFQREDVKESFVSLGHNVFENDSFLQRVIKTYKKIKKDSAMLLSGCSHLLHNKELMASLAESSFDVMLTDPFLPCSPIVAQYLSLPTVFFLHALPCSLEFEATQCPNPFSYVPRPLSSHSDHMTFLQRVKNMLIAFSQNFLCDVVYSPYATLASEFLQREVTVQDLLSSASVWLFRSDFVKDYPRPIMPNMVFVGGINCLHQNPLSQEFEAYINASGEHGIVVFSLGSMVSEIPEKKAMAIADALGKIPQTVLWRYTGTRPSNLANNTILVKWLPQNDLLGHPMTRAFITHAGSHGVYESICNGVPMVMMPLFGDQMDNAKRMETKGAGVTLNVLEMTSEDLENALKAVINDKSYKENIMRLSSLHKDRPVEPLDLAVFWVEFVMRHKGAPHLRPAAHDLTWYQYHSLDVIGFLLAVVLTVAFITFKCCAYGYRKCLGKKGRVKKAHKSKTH
- protocol_details: Inhibition of M1 formation from molidustat in pooled human liver microsomes
- Assay type: in vitro ADME
- particulars: human, pooled human liver microsomes, probe molidustat 5 µmol/L (formation of M1), IC50, pooled HLMs 0.3 mg/mL, N=1, Table 1
Returns: string. Value is TRUE if measured IC50 at 30 min is below 5 µM, and FALSE if it is greater than or equal to it.

Sample answers from the record:
Input line: Find out if reported IC50 at 30 min for Cc1cccc(C)c1OCC(=O)N[C@@H](Cc1ccccc1)[C@@H](O)C[C@H](Cc1ccccc1)NC(=O)[C@H](C(C)C)N1CCCNC1=O is less than 5 µM
Output line: TRUE

Input line: Is IC50 at 30 min strictly under 5 µM for the entry CCN(CC)CCNC(=O)c1c(C)[nH]c(/C=C2\C(=O)Nc3ccc(F)cc32)c1C ?
Output line: FALSE

Input line: Hi there! Is IC50 at 30 min for O=C1C(CC[S+]([O-])c2ccccc2)C(=O)N(c2ccccc2)N1c1ccccc1 (stereo not shown) below 5 µM, do you know?
Output line: FALSE

Further cases:
Input line: Does this compound meet the criterion IC50 at 30 min < 5 µM? C=CC[C@@H]1/C=C(\C)C[C@H](C)C[C@H](OC)[C@H]2O[C@@](O)(C(=O)C(=O)N3CCCC[C@H]3C(=O)O[C@H](/C(C)=C/[C@@H]3CC[C@@H](O)[C@H](OC)C3)[C@H](C)[C@@H](O)CC1=O)[C@H](C)C[C@@H]2OC
Output line: TRUE

Input line: Decide: IC50 at 30 min of Cc1ncc2n1-c1ccc(Cl)cc1C(c1ccccc1F)=NC2 strictly below 5 µM?
Output line: FALSE

Input line: Hi there! Is IC50 at 30 min for CN(CCOc1ccc(CC2SC(=O)NC2=O)cc1)c1ccccn1 (stereo not shown) below 5 µM, do you know?
Output line: FALSE
